System: L1210 leukemia ip in BDF1 mice, survival T/C
Experiment: NCI In Vivo Anticancer Drug Screen. Data for tumor model L1210 Leukemia (intraperitoneal) in B6D2F1 (BDF1) mice
Conditions: endpoint: mean survival time; dose: 400.0 mg/kg/injection; schedule: Q01DX009 (ip); vehicle: saline with Tween-80; higher = longer survival
Toxic doses and inconclusive results are not listed.
assay_readout: T/C

Examples from the recorded data:
[[record]]
molecule = "O=C1C=CC(=Nc2ccc(Cl)cc2)O1"
observed_measurement = "97 % of control"

[[record]]
molecule = "Cc1cc(C)c(NC(=O)c2ccccc2Cl)c(C)c1"
observed_measurement = "97 % of control"

[[record]]
molecule = "COC1OC(C(O)CO)C(O)C(O)C1O (stereo unspecified)"
observed_measurement = "104 % of control"

[[record]]
molecule = "O=C1CCCCCCCCC1O (stereo unspecified)"
observed_measurement = "97 % of control"

[[record]]
molecule = "O=C(Nc1cccc(Cl)c1)Nc1ccccc1Cl"
observed_measurement = "96 % of control"


// O=[N+]([O-])c1ccc(N=C/C=C/c2ccccc2)cc1 : T/C value = 104 % of control

// Cc1ccc(S(=O)(=O)NC(c2ccccc2)(c2ccccc2)c2ccccc2)cc1 : T/C value = 93 % of control

// C=CCS(=O)(=O)CC=C : T/C value = 93 % of control

// CCCCCCCN(CCCCCCC)CC(O)c1cc(-c2ccc(Cl)cc2)nc2c(C(F)(F)F)cccc12 (stereo unspecified) : T/C value = 100 % of control

// N#CCCN1CCCC(=O)NC1=O : T/C value = 97 % of control

// COc1ccc(NC(C)=O)c(C)c1 : T/C value = 103 % of control

// COC(=O)C(CSCSC)NC(=O)/C=C\c1ccccc1 (stereo unspecified) : T/C value = 96 % of control
